experimentalTarget: UniProt P35626
Sequence (P35626 whole entry, looked up): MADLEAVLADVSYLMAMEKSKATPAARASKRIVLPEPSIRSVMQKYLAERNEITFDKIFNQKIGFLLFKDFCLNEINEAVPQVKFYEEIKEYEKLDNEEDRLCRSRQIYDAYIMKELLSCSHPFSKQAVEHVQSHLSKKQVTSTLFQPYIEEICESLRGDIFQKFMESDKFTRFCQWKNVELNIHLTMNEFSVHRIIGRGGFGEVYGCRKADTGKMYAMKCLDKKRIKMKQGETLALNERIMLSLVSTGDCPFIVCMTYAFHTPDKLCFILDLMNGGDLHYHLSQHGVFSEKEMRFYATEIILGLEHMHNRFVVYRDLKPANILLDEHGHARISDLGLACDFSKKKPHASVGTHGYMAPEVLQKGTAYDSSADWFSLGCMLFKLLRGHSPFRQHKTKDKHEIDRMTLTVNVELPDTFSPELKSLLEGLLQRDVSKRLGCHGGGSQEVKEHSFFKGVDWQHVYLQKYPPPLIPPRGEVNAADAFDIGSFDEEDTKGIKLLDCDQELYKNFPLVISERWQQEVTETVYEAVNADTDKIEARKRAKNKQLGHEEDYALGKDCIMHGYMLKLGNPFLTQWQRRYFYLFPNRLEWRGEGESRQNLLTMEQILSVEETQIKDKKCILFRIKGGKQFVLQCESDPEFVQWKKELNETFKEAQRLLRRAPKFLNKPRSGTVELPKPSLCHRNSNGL
test: radiometric filter-binding kinase assay, Kinase HotSpot
reportedConditions: compound 0.5 µM; ATP 10 µM
resultType: residual activity (%)

- Nc1ccc2ncnc(NCCc3ccc(Oc4ccccc4)cc3)c2c1: 97.9
- Nc1ncnc2c1c(-c1ccc(Oc3ccccc3)cc1)cn2C1CCCC1: 92.2
- CCN(CC)CCNC(=O)c1c(C)[nH]c(/C=C2\C(=O)Nc3ccc(Cl)cc32)c1C: 97.8
- Cc1[nH]c(/C=C2\C(=O)Nc3ccc(S(=O)(=O)N(C)c4cccc(Cl)c4)cc32)c(C)c1C(=O)N1CCN(C)CC1: 103
- CC(=O)c1ccc(N2CCOCC2)cc1O: 89.1
- COc1ccc2c(c[n+](C)c3c4cc5c(cc4ccc23)OCO5)c1OC: 88.4
- Cc1ccc(Nc2nccc(N(C)c3ccc4c(C)n(C)nc4c3)n2)cc1S(N)(=O)=O: 99.3
- c1ccc(-c2n[nH]c3c2oc2ccccc23)cc1: 119
- Cc1ccc(NC2=CC(=O)c3sc(C)nc3C2=O)cc1: 84.5
- c1ccc(-c2n[nH]cc2-c2ccnc3ccccc23)nc1: 103
